Values were extracted from the supplement of paper PMC8728848.

Kindly supply the reported glycan array binding signal (z-score) values for the records listed here.
EXPERIMENTAL TARGET: Neu5Ac(a2-3)Gal(b1-3)[Neu5Ac(a2-6)]GalNAc
PROTOCOL DESCRIPTION: glycan array binding signal (z-score within array); higher = stronger binding
CONDITIONS USED: glycan notation: IUPAC condensed, linker removed
Many of the other results were omitted from the sample, so the strongest signals are more common in it than they were.
One number for each entry.

For the 2 binders below, give their glycan array binding signal (z-score) values.
1. rCnSL-A (Clitocybe nebularis) (protein) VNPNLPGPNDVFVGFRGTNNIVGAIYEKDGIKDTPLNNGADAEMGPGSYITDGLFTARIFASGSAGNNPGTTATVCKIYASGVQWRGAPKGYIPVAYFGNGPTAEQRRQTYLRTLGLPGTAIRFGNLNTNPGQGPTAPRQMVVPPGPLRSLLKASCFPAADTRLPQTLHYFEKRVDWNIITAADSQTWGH
2. SSL (Salmo salar) (protein) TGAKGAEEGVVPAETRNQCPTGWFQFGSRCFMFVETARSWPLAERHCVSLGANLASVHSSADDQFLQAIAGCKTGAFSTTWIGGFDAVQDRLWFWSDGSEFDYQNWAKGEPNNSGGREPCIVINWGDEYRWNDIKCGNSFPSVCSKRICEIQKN

Data returned:
-0.305
-0.153
